molecular target: opioid receptor delta (Homo sapiens); construct: expressed in transfected cells; assay: GTPγ[35S] binding assay, antagonism of BW-373U86; type: biochemical; conditions: read-out: Delta functional Ki (GTPγ[35S] binding)
Sequence (P41143 whole entry): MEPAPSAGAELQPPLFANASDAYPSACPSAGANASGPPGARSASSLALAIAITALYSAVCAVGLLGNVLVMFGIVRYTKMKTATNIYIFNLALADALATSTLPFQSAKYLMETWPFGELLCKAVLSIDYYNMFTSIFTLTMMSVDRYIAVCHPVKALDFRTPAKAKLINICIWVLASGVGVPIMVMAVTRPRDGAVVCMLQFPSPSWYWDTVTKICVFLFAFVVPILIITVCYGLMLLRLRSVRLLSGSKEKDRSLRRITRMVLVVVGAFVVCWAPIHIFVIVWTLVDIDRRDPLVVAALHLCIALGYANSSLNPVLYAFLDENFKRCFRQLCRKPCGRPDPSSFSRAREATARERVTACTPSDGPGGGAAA
MEASURED ENDPOINT: Ki (nM)
Answer in nM, number only, no unit symbol.

A selection of reference data follows.
# TEST SMILES, MEASURED ENDPOINT, READOUT VALUE
records = [
    ("CC(C)CCNCc1ccc(-c2ccc(C(N)=O)cc2O)cc1", "Ki", 543),
    ("NC(=O)c1ccc(-c2ccc(CNCCC3CCCC3)cc2)c(Cl)c1", "Ki", 0.612),
    ("NC(=O)c1ccc(-c2ccc(CNCCC3CCOCC3)cc2)c(Cl)c1", "Ki", 60.3),
    ("Cc1cc(C(N)=O)ccc1-c1ccc(CNCCC(C)C)c(OCc2ccccc2)c1", "Ki", 0.588),
    ("Cc1cc(C(N)=O)ccc1-c1ccc(CNC2Cc3ccccc3C2)c(O)c1", "Ki", 0.591),
]

Exercise: Find Ki (opioid receptor delta (Homo sapiens)) for the entry NC(=O)c1cnc(-c2ccc(CNC3Cc4ccccc4C3)cc2)c(Cl)c1
Solution: 1.95

Exercise: Find Ki (opioid receptor delta (Homo sapiens)) for the entry NC(=O)c1cccc(-c2ccc(CNCCc3cscn3)cc2Cl)c1
Solution: 23.5

Hello, the source for this data is patent US7615651B2, in case you need it.
